Measured diameter of the inhibition zone (DIZ), listed per entry for reference.
- System: Pseudomonas aeruginosa
- Assay info: Antibacterial activity against Pseudomonas aeruginosa ATCC 10145 assessed as diamater of growth inhibition zone after 24 hr by agar cup diffusion method; note: test concentration or dose not given here
- Assay type: functional
State the value with its unit after it.

Here is how some compounds turned out for diameter of the inhibition zone (DIZ).
> print(dat)
                                   molecule                         assay.endpoint  value.reported
1  COc1ccc(OC)c(/C=N/N=c2\scc(C3=CC(=O)C=CC3=O)n2-c2ccc(C)cc2)c1  diameter of the inhibition zone (DIZ)           14 mm
2  COc1ccc(/C=N/N=c2\scc(-c3cc(O)ccc3O)n2-c2ccc(C)cc2)cc1  diameter of the inhibition zone (DIZ)           16 mm
3  COc1ccc(/C=N/N=c2\scc(C3=CC(=O)C=CC3=O)n2-c2ccccc2)cc1  diameter of the inhibition zone (DIZ)           15 mm
4  COc1cc(/C=N/N=c2\scc(-c3cc(O)ccc3O)n2-c2ccc(Cl)cc2)ccc1O  diameter of the inhibition zone (DIZ)           14 mm
5  COc1ccc(/C=N/N=c2\scc(C3=CC(=O)C=CC3=O)n2-c2ccc(Cl)cc2)cc1O  diameter of the inhibition zone (DIZ)           14 mm

Attention now turns to another entry.
[ask] Please give measured diameter of the inhibition zone (DIZ) of the following entry: COc1ccc(/C=N/N=c2\scc(-c3cc(O)ccc3O)n2-c2ccccc2)cc1O
[reply] 12 mm
